Reported melting point by item:
Quantity Name: melting point

Molecule	Measurement
CCn1c2ccc(C(=O)CCCCl)cc2c2cc(C(=O)CCCCl)ccc21	106 to 108 °C
CCOC(=O)CN(CP(=S)(Oc1ccccc1)Oc1ccccc1)C(=O)C(F)(F)F	50 to 52 °C
Nc1ncccc1OCc1c(F)cccc1F	124 to 128 °C
CN1C(=O)Cc2cscc2S1(=O)=O	148 to 149 °C
O=C(O)c1ncccc1OCc1ccc(Cl)cc1	144 °C
CS(=O)(=O)c1ccc(Oc2ccc(Cl)c(Cl)c2)nc1C#N	168 to 170 °C
CN1CC[C@@H](c2c(O)cc(O)c3c(=O)cc(-c4c(F)cccc4F)oc23)[C@@H]1CO	242 to 244 °C
CC(C)OC(=O)CCC1CCCCC1(c1ccc(O)c(C(C)(C)C)c1)c1ccc(O)c(C(C)(C)C)c1 (stereo unspecified)	172 °C
C#CC(=O)NCc1ccccc1	165 to 167 °C
Cn1c(-c2ccccc2)c(CCCl)sc1=O	88 to 90 °C
CSC(C(=O)c1cc(-c2ccccc2)on1)N1CCOCC1 (stereo unspecified)	124 to 126 °C

###

# melting point annotations
Quantity Name: melting point

Molecule	Measurement
CCOC(=O)C(=CNc1cccc(OCC)n1)C(=O)OCC	58 to 60 °C
Cc1[nH]c(-c2ccccc2)nc1-c1cc(C(C)(C)C)c(O)c(C(C)(C)C)c1	298 to 300 °C
O=C(NCCO)c1cccc(-c2cccc3nn(Cc4ccc(F)cc4)cc23)c1	137 to 138 °C
CCCC(=O)OCCOc1ccc2oc3cc(C#N)ccc3c(=O)c2c1	145 to 147 °C
CCN(CC)C(=O)Oc1cc(-c2ccccc2)c2ccccc2n1	64 °C
Nc1ncnc2c1c(-c1cn[nH]c1)nn2Cc1oc2ccccc2c(=O)c1-c1ccccc1	235 to 237 °C
CCCN(CCC)C(=O)c1cc2ccccc2c(-c2ccccc2Cl)n1	101 °C
COc1cc(C(=O)NCC(=O)O)ccc1NS(=O)(=O)c1sc2ccc(Cl)cc2c1C	282 to 285 °C
COc1ccc(CC2C(=O)N(Cc3ccccc3)c3ccccc3NC2C)cc1 (centres undefined)	136 to 137 °C
O=C1c2cccc3cc(OCCO)cc(c23)C(=O)N1O	242 to 244 °C
CN(C)CCCNC1=C2N=c3cc(Cl)ccc3=C2Oc2ccccc2N1C	156 to 157 °C
COc1cc(C=NC2CCCCC2)c([N+](=O)[O-])cc1OC	160 to 161 °C
CC(=O)c1nn(C)c2ccccc12	86 to 88 °C
CN1CCc2[nH]c3ccc4sccc4c3c2C1	189 °C
Cc1cc(C)c(C)c(COc2ccc(-c3ccoc3C(=O)NNC(=O)c3ccc(O)c(C#N)c3)cc2)c1C	183 to 186 °C
CSCC(O)CN1C(=O)C(CCC(=O)O)(NC(=O)c2ccc(Cl)c(Cl)c2)c2ccccc21 (centres undefined)	168 to 170 °C
Cc1nc(-c2ccc(=O)n(C(C)C)n2)c(-c2ccccc2)nc1N	208 to 210 °C
C[C@@H](NC(=O)c1cccc(-c2ccc(Cl)cc2)c1)[C@](O)(Cn1cncn1)c1ccc(F)cc1F	90 to 91 °C
Oc1ccc(-c2ccc(-c3c(Cc4ccccc4)sc4ccccc34)cc2)cc1Br	54 to 56 °C
O=C1CCc2ccc(O)c(c2)Oc2ccc(cc2)C2OC2CO1 (centres undefined)	180 to 181 °C
COC(=O)c1nc(-c2ccc(Cl)cc2F)cc(NC(C)=O)c1O	201 to 206 °C
CC(=O)NC1CCN(Cc2cnc3cc(NC(=O)c4ccc(-c5ccc(Cl)cc5)cc4)ccc3c2)C1 (centres undefined)	> 285 °C
COC(=O)c1ccc(Cc2c(Cl)n(C)c3cc(Cl)c(CC(C)NC(=O)N(C)C)cc23)c(OC)c1 (centres undefined)	175 to 176 °C
CC(C)(C)OC(=O)N1CCN(C(=O)/C=C/c2ccc(Sc3ccc4c(c3)OCCO4)c([N+](=O)[O-])c2)CC1	165 to 167 °C
COC(=O)c1cc(C(=O)c2c(C)c(OC)c3ccc(O)cn23)ccc1N	216 °C
CCN1C=C(C(=O)O)C(=O)CC1c1ccc(OC)c(OC)c1 (centres undefined)	182 to 183 °C
Cc1nc(Cl)c2c(n1)c(C)nn2C	91 to 93 °C
CCc1nc2c(N)nc3cc(CCC(=O)N4CCOCC4)ccc3c2n1CC(C)(C)O	237 to 239 °C
O=C(CBr)OCN1C(=O)NC(c2ccccc2)(c2ccccc2)C1=O	179 to 183 °C
CC(C)c1cc(C(=O)CO[C@@H]2C[C@H](C)CC[C@H]2C(C)C)cc(C(C)C)c1O	83 to 84 °C
CC(C(=O)O)C(=O)Nc1cccc(S(=O)(=O)n2c(=O)[nH]c3cc(Cl)ccc3c2=O)c1 (centres undefined)	187 to 188 °C
CC(C)(C)c1ccc(O[C@@H]2CCNC[C@H]2O)cc1 (relative stereo)	138 to 140 °C
NC(=O)c1cc(-c2cccc(Cl)c2)sc1N	190 to 192 °C
O=C(O)c1cn(-c2nnc(C(F)(F)F)s2)c2nc(Cl)c(F)cc2c1=O	232 to 237 °C
COC(=O)c1ccc(CCCNCC(O)c2cccc(Cl)c2)cc1 (centres undefined)	89 to 92 °C
Cc1ccc(C(=O)c2c(OCc3ccccc3)cc(C(=O)O)cc2[N+](=O)[O-])cc1	222 to 223 °C
O=C(O)CCNC(=O)OCC(Cl)(Cl)Cl	89.4 to 91 °C
CC(=O)Sc1c(F)c(F)c(C=O)c(F)c1F	86 to 87 °C
CCOCCn1cc(C2CCN(CCOc3ccc(C(=O)O)cc3)CC2)c2ccccc21	85 °C
